What IC50 was measured for each of the following?
tgt: Cytochrome P450 11B2, mitochondrial (Homo sapiens, UniProt P19099)
Sequence (P19099 whole entry): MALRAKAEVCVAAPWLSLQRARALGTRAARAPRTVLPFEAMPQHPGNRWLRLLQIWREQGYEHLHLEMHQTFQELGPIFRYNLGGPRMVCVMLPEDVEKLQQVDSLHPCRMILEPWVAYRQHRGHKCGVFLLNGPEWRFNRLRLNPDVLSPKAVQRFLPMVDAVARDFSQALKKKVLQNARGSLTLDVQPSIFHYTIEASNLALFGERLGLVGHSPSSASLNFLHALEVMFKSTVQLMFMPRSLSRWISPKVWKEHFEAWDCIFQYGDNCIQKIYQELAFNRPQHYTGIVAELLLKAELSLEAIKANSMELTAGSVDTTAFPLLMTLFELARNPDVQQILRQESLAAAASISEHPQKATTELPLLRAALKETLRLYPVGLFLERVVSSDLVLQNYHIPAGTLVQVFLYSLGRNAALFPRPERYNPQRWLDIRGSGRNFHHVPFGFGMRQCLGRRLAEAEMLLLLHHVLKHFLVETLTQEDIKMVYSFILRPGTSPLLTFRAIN
protocolDetails: Inhibition of human CYP11B2 expressed in V79 cells incubated for 1 hr before 11-deoxycorticosterone substrate addition by HTRF-based assay

In plain terms, COc1ccc2c(c1)nc(-c1cccnc1)n2C1CC1 has a documented IC50 of > 1000 nM

Data point: Fc1ccc2nc(-c3cccnc3)[nH]c2c1 ; IC50 = > 10000 nM

The compound listed as CC1(n2c(-c3cccnc3)nc3ccc(F)cc32)CC1 has a reported IC50 of 16 nM

// IC50 value for N#Cc1cncc(-c2nc3cc(F)c(F)cc3n2C2CC2)c1 : 22.3 nM

FC(F)(F)c1ccc2nc(-c3cccnc3)n(C3CC3)c2c1 has a reported IC50 of 254 nM

// CS(=O)(=O)c1ccc2c(c1)nc(-c1cccnc1)n2C1CC1 : IC50 value = > 1000 nM

Consider Fc1ccc2nc(-c3cccnc3)n(Cc3ccccc3)c2c1 . Its measured IC50 is 607 nM

Data provenance is ChEMBL document CHEMBL3580617.
